Test system: Escherichia coli ATCC 25922
Protocol Text: Minimal Inhibitory Concentration (MIC) determination, broth microdilution
Type: cell-based
Particulars: ATCC25922; strain Escherichia coli ATCC 25922; broth microdilution per CLSI M07-A10; 18-24 hours at 35±2° C.; lowest concentration for complete growth inhibition
Assay Readout: MIC (µg/mL)

Compound: CN(C)C(C)(C)C(=O)Nc1cc(F)c2c(c1)CC(CNCCC1CN(c3cnc4c(n3)NC(=O)CO4)C(=O)O1)C2 (stereo not shown)
System Tested: Escherichia coli ATCC 25922
Recorded Value: 0.25
//
Compound: CN(CC(=O)Nc1cc(F)c2c(c1)CC(CNCCC1CN(c3cnc4c(n3)NC(=O)CO4)C(=O)O1)C2)C1COC1 (stereo not shown)
System Tested: Escherichia coli ATCC 25922
Recorded Value: 0.5
//
Compound: C[C@H](C(=O)Nc1ccc2c(c1F)CC(CNCCC1CN(c3cnc4c(n3)NC(=O)CO4)C(=O)O1)C2)N(C)C (stereo partly shown)
System Tested: Escherichia coli ATCC 25922
Recorded Value: 0.5
//
Compound: CN1C[C@H](O)C[C@H]1C(=O)Nc1cc(F)c2c(c1)CC(CNCCC1CN(c3cnc4c(n3)NC(=O)CO4)C(=O)O1)C2 (stereo partly shown)
System Tested: Escherichia coli ATCC 25922
Recorded Value: 0.25
//
Compound: CC(C)(O)C(=O)Nc1cc(C#N)c2c(c1)CC(CNCCC1CN(c3cnc4c(n3)NC(=O)CO4)C(=O)O1)C2 (stereo not shown)
System Tested: Escherichia coli ATCC 25922
Recorded Value: 0.5
//
Compound: O=C1COc2ncc(N3CC(CCNCC4Cc5cc(NC(=O)[C@@H]6C[C@H](O)CN6)cc(F)c5C4)OC3=O)nc2N1 (stereo partly shown)
System Tested: Escherichia coli ATCC 25922
Recorded Value: 0.5

(I) C[C@H](C(=O)Nc1cc(F)c2c(c1)CC(F)(CNCCC1CN(c3cnc4c(n3)NC(=O)CO4)C(=O)O1)C2)N(C)C (stereo partly shown)
(II) N[C@]1(C(=O)Nc2cc(F)c3c(c2)CC(CNCCC2CN(c4cnc5c(n4)NC(=O)CO5)C(=O)O2)C3)CCOC1.O=C(O)C(F)(F)F (stereo partly shown)
(Q) For the pair I and II , which member has the lower MIC number? Write down the label attached to your selection.
(A) II

(I) C[C@@H](C(=O)Nc1cc(F)c2c(c1)CC(CN1CCC3(CC1)CN(c1cnc4c(n1)NC(=O)CO4)C(=O)O3)C2)N(C)C (stereo partly shown)
(II) O=C1COc2ncc(N3CC(CCNCC4Cc5cc(NC(=O)[C@@H]6CCCN6)cc(F)c5C4)OC3=O)nc2N1 (stereo partly shown)
(III) Cl.N[C@@]1(C(=O)Nc2cc(F)c3c(c2)CC(CNCCC2CN(c4cnc5c(n4)NC(=O)CO5)C(=O)O2)C3)CCOC1 (stereo partly shown)
(Q) Order the 3 compounds from highest to lowest MIC. // ordering of labels required in reply
(A) III, II, I
(III: 1 µg/mL, II: 0.25 µg/mL, I: 0.125 µg/mL)

(a) CN(C)C(C)(C)C(=O)Nc1cc(F)c2c(c1)CC(CN1CCC3(CC1)CN(c1cnc4c(n1)NC(=O)CO4)C(=O)O3)C2 (stereo not shown)
(b) CN(CC(=O)Nc1cc(F)c2c(c1)CC(CNCCC1CN(c3cnc4c(n3)NC(=O)CO4)C(=O)O1)C2)C1CC1 (stereo not shown)
(Q) Between the two listed entries a and b , which has its MIC at the higher number? Write down the label attached to your selection.
(A) b

###

Tested on: Escherichia coli ATCC 25922
Protocol Text: Minimal Inhibitory Concentration (MIC) determination, broth microdilution
Assay type: cell-based
Particulars: ATCC25922; strain Escherichia coli ATCC 25922; broth microdilution per CLSI M07-A10; 18-24 hours at 35±2° C.; lowest concentration for complete growth inhibition
Assay Readout: MIC (µg/mL)

Examples with answers:
Molecule: CN1CCC[C@H]1C(=O)Nc1cc(F)c2c(c1)CC(CNCCC1CN(c3cnc4c(n3)NC(=O)CO4)C(=O)O1)C2 (stereo partly drawn)
Recorded Value: 0.125

Molecule: C[C@H](C(=O)Nc1cc(C#N)c2c(c1)CC(O)(CN1CCC3(CC1)CN(c1cnc4c(n1)NC(=O)CO4)C(=O)O3)C2)N(C)C (stereo partly drawn)
Recorded Value: 1

Molecule: CC(C(=O)Nc1cc(F)c2c(c1)CC(CNCC[C@@H]1CN(c3cnc4c(n3)NC(=O)CO4)C(=O)O1)C2)N1CCC1 (stereo partly drawn)
Recorded Value: 0.125

Molecule: C[C@@]1(C(=O)Nc2cc(F)c3c(c2)CC(CN2CCC4(CC2)CN(c2cnc5c(n2)NC(=O)CO5)C(=O)O4)C3)C[C@@H](O)CN1 (single isomer, unassigned)
Recorded Value: 0.5

(a) O=C(CN1CC2CC2C1)Nc1cc(F)c2c(c1)CC(CNCCC1CN(c3cnc4c(n3)NC(=O)CO4)C(=O)O1)C2 (stereo not drawn)
(b) CC(C)(O)C(=O)Nc1cc(C#N)c2c(c1)CC(CNCCC1CN(c3ccc4c(n3)NC(=O)CO4)C(=O)O1)C2 (stereo not drawn)
(Q) Between the two listed entries a and b , which has its MIC at the higher number? Write down the label attached to your selection.
(A) b

###

System: Escherichia coli ATCC 25922
Protocol Text: Minimal Inhibitory Concentration (MIC) determination, broth microdilution
Format: cell-based
Particulars: ATCC25922; strain Escherichia coli ATCC 25922; broth microdilution per CLSI M07-A10; 18-24 hours at 35±2° C.; lowest concentration for complete growth inhibition
Assay Readout: MIC (µg/mL)

Examples with answers:
Molecule: C[C@H](C(=O)Nc1cc(F)c2c(c1)CC(CNCC[C@@H]1CN(c3cnc4c(n3)NC(=O)CO4)C(=O)O1)C2)N(C)C (stereo partly shown)
Recorded Value: 0.125
--
Molecule: O=C1COc2ncc(N3CC4(CCN(CC5Cc6cc(NC(=O)[C@H]7C[C@@H](O)CN7)cc(F)c6C5)CC4)OC3=O)nc2N1 (stereo partly shown)
Recorded Value: 0.125
--
Molecule: O=C1COc2ncc(N3CC(CCNCC4Cc5cc(NC(=O)[C@@H]6C[C@@H](O)CN6)cc(F)c5C4)OC3=O)nc2N1 (stereo partly shown)
Recorded Value: 0.5
--
Molecule: O=C(O)C(F)(F)F.O=C1COc2ncc(N3CC4(CCN(CC5Cc6cc(NC(=O)[C@H]7NCC[C@@H]7O)cc(F)c6C5)CC4)OC3=O)nc2N1 (stereo partly shown)
Recorded Value: 0.25
--
Molecule: O=C1COc2ncc(N3CC4(CCN(CC5Cc6cc(NC(=O)[C@@H]7C[C@@H](O)CN7)cc(F)c6C5)CC4)OC3=O)nc2N1 (stereo partly shown)
Recorded Value: 0.125
--
Molecule: C[C@H](C(=O)Nc1cc(F)c2c(c1F)CC(O)(CNCC1CN(c3cnc4c(n3)NC(=O)CO4)C(=O)O1)C2)N(C)C (stereo partly shown)
Recorded Value: 1
--
Molecule: COC1(CNCC2CN(c3cnc4c(n3)NC(=O)CO4)C(=O)O2)Cc2c(F)cc(NC(=O)[C@@H](C)N(C)C)c(F)c2C1 (stereo partly shown)
Recorded Value: 4
--
Molecule: C[C@H](C(=O)Nc1cc(F)c2c(c1)C(O)C(CN1CCC3(CC1)CN(c1cnc4c(n1)NC(=O)CO4)C(=O)O3)C2)N(C)C (stereo partly shown)
Recorded Value: 0.5

(a) COC[C@@H](N)C(=O)Nc1cc(F)c2c(c1)CC(CNCCC1CN(c3cnc4c(n3)NC(=O)CO4)C(=O)O1)C2 (stereo partly shown)
(b) N[C@@H](CC(=O)O)C(=O)Nc1cc(F)c2c(c1)CC(CNCCC1CN(c3cnc4c(n3)NC(=O)CO4)C(=O)O1)C2.O=C(O)C(F)(F)F (stereo partly shown)
(Q) For the pair a and b , which member has the lower MIC number? Write down the label attached to your selection.
(A) a

###

Test system: Escherichia coli ATCC 25922
Protocol Text: Minimal Inhibitory Concentration (MIC) determination, broth microdilution
Format: cell-based
Particulars: ATCC25922; strain Escherichia coli ATCC 25922; broth microdilution per CLSI M07-A10; 18-24 hours at 35±2° C.; lowest concentration for complete growth inhibition
Assay Readout: MIC (µg/mL)

Compound: C[C@@H](C(=O)Nc1cc(F)c2c(c1)CC(CNCCC1CN(c3cnc4c(n3)NC(=O)CO4)C(=O)O1)C2)N(C)C (stereo partly drawn) [Example 9]
System Tested: Escherichia coli ATCC 25922
MIC, µg/mL: 0.125

(I) C[C@H](C(=O)Nc1cc(C#N)c2c(c1)CC(CNCC[C@@H]1CN(c3cnc4c(n3)NC(=O)CO4)C(=O)O1)C2)N(C)C (stereo partly drawn) [Example 22]
(II) CN1C[C@H](O)C[C@H]1C(=O)Nc1cc(F)c2c(c1)CC(CN1CCC3(CC1)CN(c1cnc4c(n1)NC(=O)CO4)C(=O)O3)C2 (stereo partly drawn) [Example 64]
(Q) Between the two listed entries I and II , which has its MIC at the higher number? Write down the label attached to your selection.
(A) II
(II: 0.25 µg/mL, I: 0.125 µg/mL)
